These measurements were taken from patent US20200392228A1.

Target: T1, human MAdCAM protein (human, UniProt Q13477 19-317)
T1 construct: used for Octet, SPR, ELISA and plate capture; construct not described; also called recombinant human MAdCAM; soluble monomeric human MAdCAM
T1 sequence (looked up): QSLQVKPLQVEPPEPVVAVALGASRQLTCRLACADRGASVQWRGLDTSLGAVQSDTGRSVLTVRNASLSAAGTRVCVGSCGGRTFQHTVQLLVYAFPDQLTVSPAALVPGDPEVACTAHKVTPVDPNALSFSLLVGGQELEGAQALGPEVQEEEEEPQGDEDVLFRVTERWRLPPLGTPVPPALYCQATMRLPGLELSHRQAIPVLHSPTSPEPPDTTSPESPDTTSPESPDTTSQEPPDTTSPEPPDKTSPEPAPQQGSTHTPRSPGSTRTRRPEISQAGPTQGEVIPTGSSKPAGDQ
Assay: Octet
EXPERIMENTAL ENDPOINT: binding result

MAdCAM antibody Clone ID 59 of Table 6 (scFv) (scFv) scFv: EVQLLESGGGLVQPGGSLRLSCAASGFTFSDFWMHWVRQAPGKGLEWISYISGDSGYTNYADSVKGRFTISRDNSKNTLYLQMNSLRAEDTAVYYCARDRPYYYYMDVWGKGTTVTVSSGGGGSGGGGSGGGGSGGGGSDIQMTQSPSSLSASVGDRVTITCRASQSVSRSLAWYQQKPGKAPKLLIYAASSLQSGVPSRFSGSGSGTDFTLTISSLQPEDFATYYCQQYKSYPVTFGQGTKVEIK :: binds
MAdCAM antibody Clone ID 63 of Table 6 (scFv) (scFv) scFv: EVQLLESGGGLVKPGGSLRLSCAASGFTFDDYAMHWVRQAPGKGLEWVASITSSSAFIDYAASVKGRFTISRDDSKNTLYLQMNSLKTEDTAVYYCARERVDWNSYFDLWGRGTLVTVSSGGGGSGGGGSGGGGSGGGGSEIVMTQSPATLSVSPGERATLSCRASQGISNSYLAWYQQKPGQAPRLLIYGASTRATGIPARFSGSGSGTEFTLTISSLQSEDFAVYYCQQYYTYPPTFGPGTKVDIK :: binds
MAdCAM antibody Clone ID 60 of Table 6 (scFv) (scFv) scFv: EVQLLESGGGLVQPGGSLRLSCAASGFTFDDYTMHWVRQAPGKGLEWVSDISGSGGSTYYADSVKGRFTISRDNSKNTLYLQMNSLRAEDTAVYYCAKDVVVAGTPLHFDYWGQGTLVTVSSGGGGSGGGGSGGGGSGGGGSDIQMTQSPSSLSASVGDRVTITCQASQDISNYLNWYQQKPGKAPKLLIYAASYLQSGVPSRFSGSGSGTDFTLTISSLQPEDFATYYCQQAHNYPITFGQGTRLEIK :: binds
MAdCAM antibody Clone ID 2 of Table 6 (scFv) (scFv) scFv: QVQLVQSGAEVKKPGASVKVSCKASGYPFIGYYLHWVRQAPGQGLEWMGIINPSGGSTSYAQKFQGRVTMTRDTSTSTVYMELSSLRSEDTAVYYCAREGRLSYGMDAWGQGTLVTVSSGGGGSGGGGSGGGGSGGGGSDIQMTQSPSSLSASVGDRVTITCRASQSISSYLAWYQQKPGKAPKLLIYGASTLESGVPSRFSGSGSGTDFTLTISSLQPEDFATYYCQQTWGPPFTFGQGTKLEIK :: binds

Turning to the following binder.
Prompt line: Return the recorded binding result value; entry: MAdCAM antibody Clone ID 5 of Table 6 (scFv) (scFv) scFv: EVQLLESGGGLVQPGGSLRLSCAASGFTFSSYWMHWVRQAPGKGLEWVSSISPGGSNIDYADSVKGRFTISRDNSKNTLYLQMNSLRAEDTAVYYCAREVQLSHYDYWGQGTLVTVSSGGGGSGGGGSGGGGSGGGGSDIQMTQSPSSLSASVGDRVTITCRASQGISNSLAWYQQKPGKAPKLLIYGASSLQSGVPSRFSGSGSGTDFTLTISSLQPEDFATYYCQQANSFPFTFGQGTKVEIK
Response line: binds
